biological target: muscarinic M1/M2 receptor; experiment: Muscarinic M1/M2 receptor binding assay (displacement of 3H-QNB); conditions: 3H-QNB 0.126 nM, rat frontal cortex membranes, 32° C., 60 min, pH 7.4; read-out: Receptor affinity M1/M2 (Ki)
measure: pKi
// pKi here means minus log10 of the molar concentration (mol/L)

GET /value?item= CN1CC2CC1CN2C1=Nc2cc(Cl)c(Cl)cc2Nc2ccccc21 (stereo not drawn) &field=pKi returns 7.39

GET /value?item= CN1CC2CC1CN2C1=Nc2cc(Cl)ccc2Oc2ccccc21 (stereo not drawn) &field=pKi returns 7.55

GET /value?item= c1ccc(CN2CC3CC2CN3C2=Nc3ccccc3Oc3ccccc32)cc1 (stereo not drawn) &field=pKi returns 6.05

Sourced from patent US5561127A
